- assay_conditions: 303.15 K; 97.6 kPa; Liquid; Vibrating tube method
Would you mind telling me the reported mass density of each entry?
One number for each entry, in kg/m3.

The following molecules have reported results that may help.
molecule	mass density / kg/m3
C[S+](C)[O-] [dimethyl sulfoxide]	1090.29
c1ccncc1	973.09
CC(=O)N(C)C [N,N-dimethylethanamide]	931.85
CCCCCCCC[n+]1ccn(C)c1.[Cl-] [1-methyl-3-octylimidazolium chloride]	1006.2

# input for lookup
// field: mass density; key: CN(C)C=O [dimethylformamide] ; value = 939.18

---

Would you mind telling me the reported viscosity of each entry?
- assay_conditions: 313.15 K; 97.6 kPa; Liquid; Capillary tube (Ostwald / Ubbelohde) method
Please don't drop the unit; write it after the number.

molecule	viscosity
C[S+](C)[O-] [dimethyl sulfoxide]	1.53 mPa·s
CCCCCCCC[n+]1ccn(C)c1.[Cl-] [1-methyl-3-octylimidazolium chloride]	2766.9 mPa·s
CC(=O)N(C)C [N,N-dimethylethanamide]	0.78 mPa·s
CN(C)C=O [dimethylformamide]	0.68 mPa·s

# input for lookup
// field: viscosity; key: c1ccncc1 ; value = 0.74 mPa·s

---

- assay_conditions: 308.15 K; 97.6 kPa; Liquid; Capillary tube (Ostwald / Ubbelohde) method
quantity: viscosity

compound	viscosity
CN(C)C=O [dimethylformamide]	0.72 mPa·s
CCCCCCCC[n+]1ccn(C)c1.[Cl-] [1-methyl-3-octylimidazolium chloride]	4272.9 mPa·s
C[S+](C)[O-] [dimethyl sulfoxide]	1.66 mPa·s
c1ccncc1	0.79 mPa·s

# input for lookup
// field: viscosity; key: CC(=O)N(C)C [N,N-dimethylethanamide] ; value = 0.83 mPa·s

---

- assay_conditions: 323.15 K; 97.6 kPa; Liquid; Vibrating tube method
Would you mind telling me the reported mass density of each entry?
Give bare numbers, in kg/m3.

molecule	quantity	value_reported
c1ccncc1	mass density	952.9
CN(C)C=O [dimethylformamide]	mass density	920.07
CC(=O)N(C)C [N,N-dimethylethanamide]	mass density	913.44

# per-item lookup of mass density; items listed below
1. CCCCCCCC[n+]1ccn(C)c1.[Cl-] [1-methyl-3-octylimidazolium chloride]
2. C[S+](C)[O-] [dimethyl sulfoxide]

A.
1. 994.82
2. 1070.32

---

- assay_conditions: 348.15 K; 97.6 kPa; Liquid; Vibrating tube method
Would you mind telling me the reported mass density of each entry?
Answers are plain numbers, in kg/m3.

The following compounds have reported results that may help.
compound	mass density (kg/m3)
CC(=O)N(C)C [N,N-dimethylethanamide]	890.19
CCCCCCCC[n+]1ccn(C)c1.[Cl-] [1-methyl-3-octylimidazolium chloride]	980.88
C[S+](C)[O-] [dimethyl sulfoxide]	1045.34

# per-item lookup of mass density; items listed below
1. CN(C)C=O [dimethylformamide]
2. c1ccncc1 [pyridine]

A.
895.87
927.3

---

Would you mind telling me the reported mass density of each entry?
- assay_conditions: 343.15 K; 97.6 kPa; Liquid; Vibrating tube method
Answers are plain numbers, in kg/m3.

The following compounds have reported results that may help.
compound	measure_unit	mass density
CC(=O)N(C)C [N,N-dimethylethanamide]	kg/m3	894.87
C[S+](C)[O-] [dimethyl sulfoxide]	kg/m3	1050.35

# per-item lookup of mass density; items listed below
1. CN(C)C=O [dimethylformamide]
2. CCCCCCCC[n+]1ccn(C)c1.[Cl-] [1-methyl-3-octylimidazolium chloride]

A.
[900.74, 983.63]

// field: mass density; key: c1ccncc1 [pyridine] ; value = 932.46

---

- assay_conditions: 353.15 K; 97.6 kPa; Liquid; Capillary tube (Ostwald / Ubbelohde) method
Would you mind telling me the reported viscosity of each entry?
Numbers only, in mPa·s.

compound	quantity	measure_unit	value_reported
C[S+](C)[O-] [dimethyl sulfoxide]	viscosity	mPa·s	0.88

# per-item lookup of viscosity; items listed below
1. CN(C)C=O [dimethylformamide]
2. CC(=O)N(C)C [N,N-dimethylethanamide]
3. CCCCCCCC[n+]1ccn(C)c1.[Cl-] [1-methyl-3-octylimidazolium chloride]
4. c1ccncc1 [pyridine]

A.
1: 0.47; 2: 0.52; 3: 181.41; 4: 0.48

---

- assay_conditions: 328.15 K; 97.6 kPa; Liquid; Vibrating tube method
Would you mind telling me the reported mass density of each entry?
Give bare numbers, in kg/m3.

The following molecules have reported results that may help.
molecule	value_reported
CCCCCCCC[n+]1ccn(C)c1.[Cl-] [1-methyl-3-octylimidazolium chloride]	992
CC(=O)N(C)C [N,N-dimethylethanamide]	908.81
C[S+](C)[O-] [dimethyl sulfoxide]	1065.33
c1ccncc1 [pyridine]	947.82

# input for lookup
// field: mass density; key: CN(C)C=O [dimethylformamide] ; value = 915.26

---

Would you mind telling me the reported log10 viscosity of each entry?
- assay_conditions: 303.15 K; 97.6 kPa; Liquid; Capillary tube (Ostwald / Ubbelohde) method
Answers are given as log10 of viscosity in mPa·s.

compound	log10 viscosity
CN(C)C=O [dimethylformamide]	-0.11

# per-item lookup of log10 viscosity; items listed below
1. CCCCCCCC[n+]1ccn(C)c1.[Cl-] [1-methyl-3-octylimidazolium chloride]
2. c1ccncc1
3. CC(=O)N(C)C [N,N-dimethylethanamide]
4. C[S+](C)[O-] [dimethyl sulfoxide]

A.
1: 3.87; 2: -0.08; 3: -0.05; 4: 0.26

---

- assay_conditions: 308.15 K; 97.6 kPa; Liquid; Vibrating tube method
quantity: mass density (kg/m3)
Give bare numbers, in kg/m3.

The following molecules have reported results that may help.
molecule	mass density [kg/m3]
C[S+](C)[O-] [dimethyl sulfoxide]	1085.28
c1ccncc1	968.06
CCCCCCCC[n+]1ccn(C)c1.[Cl-] [1-methyl-3-octylimidazolium chloride]	1003.33
CC(=O)N(C)C [N,N-dimethylethanamide]	927.26

# input for lookup
// field: mass density; key: CN(C)C=O [dimethylformamide] ; value = 934.41

---

- assay_conditions: 328.15 K; 97.6 kPa; Liquid; Capillary tube (Ostwald / Ubbelohde) method
Would you mind labelling by viscosity? At or over 0.7 mPa·s is MET, under is NOT MET.

Here are 4 molecules together with their reported answers.
molecule	group_label
c1ccncc1	NOT MET
CN(C)C=O [dimethylformamide]	NOT MET
CC(=O)N(C)C [N,N-dimethylethanamide]	NOT MET
CCCCCCCC[n+]1ccn(C)c1.[Cl-] [1-methyl-3-octylimidazolium chloride]	MET

Q. Identify whether the reported viscosity of the following molecule is 0.7 mPa·s or greater: C[S+](C)[O-] [dimethyl sulfoxide]
A. MET
